assayProtocol: Jurkat cell killing, Annexin V / propidium iodide flow cytometry
Assay type: cell-based
conditionsUsed: human, 50 μM
quantityKind: percent nonviable cells at 20 hours, 50 µM

Data request, read-out percent nonviable cells at 20 hours, 50 µM, for H-AVPIAQK-NH2 [SMAC, H-Ala-Val-Pro-Ile-Ala-Gln-Lys-NH2]
~16%

* * *

studySystem: UniProt P98170
Sequence (P98170 whole entry): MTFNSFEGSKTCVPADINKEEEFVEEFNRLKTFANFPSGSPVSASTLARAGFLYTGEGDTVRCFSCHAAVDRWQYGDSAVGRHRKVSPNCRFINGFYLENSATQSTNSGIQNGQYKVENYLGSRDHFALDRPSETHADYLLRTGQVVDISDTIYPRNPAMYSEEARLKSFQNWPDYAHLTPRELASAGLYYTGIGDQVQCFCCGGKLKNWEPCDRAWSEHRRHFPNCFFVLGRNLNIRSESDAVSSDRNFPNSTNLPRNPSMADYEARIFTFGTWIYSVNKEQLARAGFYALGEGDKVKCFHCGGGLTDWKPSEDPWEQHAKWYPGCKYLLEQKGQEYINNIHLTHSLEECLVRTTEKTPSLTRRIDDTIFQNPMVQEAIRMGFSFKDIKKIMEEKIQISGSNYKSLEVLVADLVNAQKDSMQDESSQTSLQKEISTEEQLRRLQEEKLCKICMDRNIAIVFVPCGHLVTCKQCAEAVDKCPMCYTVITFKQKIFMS
assayProtocol: SMAC competition assay: rhodamine labeled SMAC tetrapeptide AVPI and full length XIAP
conditionsUsed: amount of compound necessary to restore Caspase-3 activity to 50% of Vmax
quantityKind: pEC50
Just so you know, pEC50 here is -log10 of the concentration in molar units; reply with that number alone.

>>> endpointvalue("COc1ccc(CCN2CCC[C@@H]2CN(C(=O)Nc2ccccc2)[C@@H](CNC(=O)Nc2ccccc2)CC2CCCCC2)cc1")
4.48

Now look at this one.
# query: pEC50 | item `CCCCCCCN1C(=O)C(=O)N([C@H](CCCC)CNCc2ccccc2)C[C@@H]1Cc1ccc2ccccc2c1` | system: UniProt P98170
4.43

Source listed as patent US20050159359A1.
